Molecular target: T1, Human CD137 shuffle 3 (amino acids 115-138 replaced by wild boar CD137) (human, amino acids 115-138 from wild …, UniProt Q07011 24-255)
T1 construct: also called shuffle construct 3
T1 chain: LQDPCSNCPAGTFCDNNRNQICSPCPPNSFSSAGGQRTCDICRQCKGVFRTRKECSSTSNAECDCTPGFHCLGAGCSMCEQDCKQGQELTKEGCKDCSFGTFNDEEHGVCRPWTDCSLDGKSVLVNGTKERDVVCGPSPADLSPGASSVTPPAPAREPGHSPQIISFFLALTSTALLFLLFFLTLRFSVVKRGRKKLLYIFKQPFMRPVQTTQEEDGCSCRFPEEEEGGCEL
Experiment: flow cytometry on transfected HEK293T-17 cells, 1 µg/mL antibody
REPORTED_METRIC: binding result

CD137 antibody clone 002 (rabbit) (antibody, human IgG1, kappa, V domains shown, also called Clone 2; CD137 clone 002) VH: QSVEESGGRLVTPGTPLTLTCTVSGFSLTYYAVTWVRQPPGKGLEWIGVIYDNGATAFATWAKGRFTMSKNSTTVALKVTSPTTEDTATYFCARSANNAWSTYSNLWGQGTLVTVSS VL: DIVMTQTPSSVSAAVGGTVTINCQASEDISSYLSWYQQKLGQPPKLLIYKASTLESGVPSRFKGSGSGTEYTLTISDLESDDAATYYCQSYYSGSISGYGFVFGGGTGVVVKR
binds
CD137 antibody clone 006 (rabbit) (antibody, human IgG1, kappa, V domains shown, also called Clone 6; CD137 clone 006) VH: QSVEESGGRLVTPGTPLTLTCTVSGFSLSSYAMSWVRQAPGKGLEWIGIISTSGITYYASWAKGRFTISKTSTMVDLKITSPTTEDTATYFCARLNGFDDYVRYFDFWGLGTLVTVSS VL: AIELTQTPSSVSAAVGGTVTINCQASESIASNLAWYQQKPGQPPKLLIYAASYLASGVPSRFKGSGSGTEYTLTISGVQSADAATYYCQSAFYVSSSDNAFGGGTEVVVKR
binds
CD137 antibody clone 007 (rabbit) (antibody, human IgG1, kappa, V domains shown, also called Clone 7; CD137 clone 007) VH: QSLEESGGRLVTPGTPLTLTCTASGFSLSSYDVSWVRQAPGKGLEYIGFIGSDGSAHYATWVKGRFTISKTSTTVDLKITSPTTEDTATYFCARDWNDYWAHDLWGPGTLVTVSS VL: AQVLTQTTSPVSAAVGGTVTINCQASQIVTSKSALSWYQQKPGQPPRLLIYKASTLASGVPSRFSGSGSGTQFTLTISDLESDDAATYYCAGGYYNSGDLNPFGGGTEVVVKR
binds
